# experimentalDetails: photoluminescence quantum yield (fraction); solvent given as SMILES
# experimentalParameters: in ClC(Cl)Cl
propertyName: photoluminescence quantum yield
# print the numeric value only

molecule="O=[N+]([O-])c1ccc(F)cc1C1CC(c2cccc3ccccc23)=NN1c1ccccc1 (centres undefined)" readoutvalue=0.12
molecule=CCCCCCOc1ccc(N(c2ccc(OCCCCCC)cc2)c2ccc(-c3sc(-c4ccc(N(c5ccc(OCCCCCC)cc5)c5ccc(OCCCCCC)cc5)cc4)c4nc(CC)c(CC)nc34)cc2)cc1 readoutvalue=0.0225
molecule=C(#Cc1ccccc1)C(C#Cc1ccccc1)=Cc1ccc2cc(C=C(C#Cc3ccccc3)C#Cc3ccccc3)ccc2c1 readoutvalue=0.49

With those in mind, consider the next molecule.
Any idea what its photoluminescence quantum yield is? The molecule is CCCCCCCCC1(CCCCCCCC)c2cc3c(cc2-c2sc(-c4ccc(/C=C5\SC(SCC)=NC5=O)c5nsnc45)cc21)C(CCCCCCCC)(CCCCCCCC)c1cc(-c2ccc(/C=C4\SC(SCC)=NC4=O)c4nsnc24)sc1-3
0.059

Origin of values: the Deep4Chem optical property database
